Cited source: patent US8471005B2

The entries below are paired with their reported pIC50.
System under test: ALK (Homo sapiens, UniProt Q9UM73)
Construct: host or cells: baculovirus expression system
Sequence (Q9UM73 19-1620): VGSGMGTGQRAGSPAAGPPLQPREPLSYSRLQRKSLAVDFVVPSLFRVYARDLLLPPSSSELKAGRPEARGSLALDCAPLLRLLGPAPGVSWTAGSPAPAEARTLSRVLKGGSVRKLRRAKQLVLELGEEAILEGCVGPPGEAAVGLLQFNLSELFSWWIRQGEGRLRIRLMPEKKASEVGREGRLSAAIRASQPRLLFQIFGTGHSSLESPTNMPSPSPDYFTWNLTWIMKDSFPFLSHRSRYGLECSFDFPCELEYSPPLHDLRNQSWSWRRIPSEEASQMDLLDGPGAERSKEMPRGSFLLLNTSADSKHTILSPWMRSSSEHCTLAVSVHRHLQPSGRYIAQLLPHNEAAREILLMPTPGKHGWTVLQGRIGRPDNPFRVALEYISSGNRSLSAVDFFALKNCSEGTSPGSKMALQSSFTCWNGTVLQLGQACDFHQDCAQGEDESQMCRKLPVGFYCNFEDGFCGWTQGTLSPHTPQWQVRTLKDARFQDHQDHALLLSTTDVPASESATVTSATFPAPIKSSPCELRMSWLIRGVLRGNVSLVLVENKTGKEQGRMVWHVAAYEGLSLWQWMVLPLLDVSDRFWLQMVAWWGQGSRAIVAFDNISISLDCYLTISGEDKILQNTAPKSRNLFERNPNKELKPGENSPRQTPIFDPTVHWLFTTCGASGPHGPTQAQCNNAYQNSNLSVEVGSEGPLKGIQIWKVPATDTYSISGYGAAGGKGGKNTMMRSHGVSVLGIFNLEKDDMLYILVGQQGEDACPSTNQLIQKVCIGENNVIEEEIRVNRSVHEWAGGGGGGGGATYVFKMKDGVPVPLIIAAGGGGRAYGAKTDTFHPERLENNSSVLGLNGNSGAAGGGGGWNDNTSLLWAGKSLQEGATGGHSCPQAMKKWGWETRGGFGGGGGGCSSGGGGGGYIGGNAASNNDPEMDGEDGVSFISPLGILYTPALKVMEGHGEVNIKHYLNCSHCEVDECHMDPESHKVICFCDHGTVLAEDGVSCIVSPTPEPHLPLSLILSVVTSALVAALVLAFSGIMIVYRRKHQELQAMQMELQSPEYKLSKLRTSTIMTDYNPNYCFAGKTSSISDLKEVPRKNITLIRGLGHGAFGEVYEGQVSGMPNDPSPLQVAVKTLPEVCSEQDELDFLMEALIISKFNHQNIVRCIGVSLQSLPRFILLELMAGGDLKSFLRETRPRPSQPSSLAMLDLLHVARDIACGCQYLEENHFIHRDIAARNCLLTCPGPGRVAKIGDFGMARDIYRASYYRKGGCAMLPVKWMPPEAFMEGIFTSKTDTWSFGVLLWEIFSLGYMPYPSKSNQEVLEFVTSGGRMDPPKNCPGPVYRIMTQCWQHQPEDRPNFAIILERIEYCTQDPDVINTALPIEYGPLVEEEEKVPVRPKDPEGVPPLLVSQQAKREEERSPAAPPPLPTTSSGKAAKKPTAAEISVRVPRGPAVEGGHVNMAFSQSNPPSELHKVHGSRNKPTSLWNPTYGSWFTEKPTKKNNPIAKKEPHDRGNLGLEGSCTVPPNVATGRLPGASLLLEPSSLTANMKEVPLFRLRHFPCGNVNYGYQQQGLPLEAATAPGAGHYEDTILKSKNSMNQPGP
Protocol description: ALK Kinase Assay (ELISA/TRF, PLC-γ substrate)
Type: biochemical
Condition summary: ALK kinase inhibition, 1 μM ATP; read-out: ALK Potency
Description: Briefly, each 96-well plate was coated with […] of 10 μg/mL substrate (phospholipase C-γ) in Tris-buffered saline (TBS). […] The reaction was initiated by adding enzyme (30 ng/ml ALK) and was allowed to proceed at 37° C. for 15 minutes. Detection of the phosphorylated product was performed by adding 100 μl/well of Eu—N1 labeled PT66 antibody (Perkin Elmer # AD0041). Data analysis was performed using ActivityBase (IDBS, Guilford, UK). […]
pIC50: −log10 of the molar value.

CN1CCN(C)C(c2cccc(Nc3ncc4ccc(-c5cccc(S(=O)(=O)N6CCCC6)c5)n4n3)c2)C1=O (centres unmarked) [Example 1079] ... 5.00 to 6.00
CCN(CC)C1CCN(c2ccc(Nc3ncc4ccc(-c5cccc(S(C)(=O)=O)c5)n4n3)cc2)CC1 [Example 1137] ... 6.00 to 7.00
COc1ccc(-c2ccc3cnc(Nc4ccc(N5CCN(C)CC5)nc4)nn23)cn1 [Example 1109] ... 6.00 to 7.00

Challenge: Report pIC50 for COc1cc(-c2cccnc2)ccc1Nc1ncc2ccc(-c3ccccc3OC)n2n1 [Example 807] tested on ALK (Homo sapiens, UniProt Q9UM73).
Response given: 5.00 to 6.00

Challenge: Report pIC50 for CN(c1ccccc1-c1ccc2cnc(Nc3ccc4cn[nH]c4c3)nn12)S(C)(=O)=O [Example 1337] tested on ALK (Homo sapiens, UniProt Q9UM73).
Response given: 6.00 to 7.00

Challenge: Report pIC50 for COc1cc(-c2ccc3cnc(Nc4ccc(C5CN(CC(N)=O)C5)cc4)nn23)c(OC)nn1 [Example 581] tested on ALK (Homo sapiens, UniProt Q9UM73).
Response given: 6.00 to 7.00

Challenge: Report pIC50 for CN1CCN(c2ccc(Nc3ncc4ccc(-c5ccc(CNCCS(C)(=O)=O)cc5)n4n3)cc2)CC1 [Example 1208] tested on ALK (Homo sapiens, UniProt Q9UM73).
Response given: 6.00 to 7.00

Challenge: Report pIC50 for COc1cc(N2CCC(N3CC[C@@H](O)C3)CC2)ccc1Nc1ncc2ccc(-c3ccccc3OC)n2n1 [Example 479] tested on ALK (Homo sapiens, UniProt Q9UM73).
Response given: > 7.00
